Field: inhibition at 1 µM. Provide a value for each of the compounds that follow.
System: HOS-TE85
testDetails: Antiproliferative activity against human MNNG/HOS cells assessed as cell growth inhibition at 1 uM measured after 72 hrs by CCK-8 assay relative to control
Assay type: functional

Solved cases below.
INSERT INTO measurements (compound, testedtarget, reported) VALUES
  ('COc1ccc(N2C(=O)CSC2c2cccc(C(=O)NCCCCc3ccccc3)c2)c(OC)c1 (stereo not drawn)', 'HOS-TE85', '58%'),
  ('COc1ccc(OC)c(N2C(=O)CSC2c2cccc(C(=O)NCCCCc3ccccc3)c2)c1 (stereo not drawn)', 'HOS-TE85', '20%');

Please look at the items below and tell me inhibition at 1 µM for each one, in order.
1. COc1c(F)cccc1N1C(=O)CSC1c1cccc(C(=O)NCCCCc2ccccc2)c1 (stereo not drawn)
2. CCN1C(=O)CSC1c1cccc(C(=O)NCCCCc2ccccc2)c1 (stereo not drawn)
3. COc1cc(F)ccc1N1C(=O)CSC1c1cccc(C(=O)NCCCCc2ccccc2)c1 (stereo not drawn)
4. COc1cccc(OC)c1N1C(=O)CSC1c1cccc(C(=O)NCCCCc2ccccc2)c1 (stereo not drawn)
5. O=C(NCCCCc1ccccc1)c1cccc(C2SCC(=O)N2c2ccccc2F)c1 (stereo not drawn)
6. CC(F)(F)c1cccc(N2C(=O)CSC2c2cccc(C(=O)NCCCCc3ccccc3)c2)c1 (stereo not drawn)

*A*
["12%", "0%", "94%", "95%", "95%", "93%"]

###

testDetails: Half life in male ICR mouse at 62.5 mg/kg, ip measured upto 24 hrs by LC-MS/MS analysis
Format: ADME, organism-based
measurementContext: in vivo
readout: half-life (min)
Answers are plain numbers, in min.

*Q* What does the data say about its half-life? Entry: Cc1ccnc(N2C(=O)CS[C@@H]2c2cccc(C(=O)NCCCCn3cccn3)c2)c1
*A* 38.5

###

testDetails: Cytotoxicity against human BMSC cells assessed as growth inhibition measured after 72 hrs by CCK-8 assay
Assay type: toxicity, cell-based, HBMSC
readout: IC50 at 72 h

*Q* What does the data say about its IC50 at 72 h? Entry: Cc1ccnc(N2C(=O)CS[C@@H]2c2cccc(C(=O)NCCCCn3cccn3)c2)c1
*A* > 10 µM

###

Tested on: MG-63
testDetails: Antiproliferative activity against human MG-63 cells with increase MYOF expression assessed as cell growth inhibition incubated for 72 hrs by CCK-8 assay
Format: functional, cell-based
measurementContext: MG-63, 72 h
readout: pIC50
Answers are plain numbers, as −log10 of the molar value.

*Q* What does the data say about its pIC50? Entry: Cc1ccnc(N2C(=O)CS[C@@H]2c2cccc(C(=O)NCCCCn3cccn3)c2)c1
*A* 7.83

###

testDetails: Oral bioavailability in male ICR mouse at 25 mg/kg measured upto 24 hrs by LC-MS/MS analysis
Type: ADME, organism-based
measurementContext: in vivo
readout: bioavailability (%)
One number for each entry, in %.

*Q* What does the data say about its bioavailability? Entry: Cc1ccnc(N2C(=O)CS[C@@H]2c2cccc(C(=O)NCCCCn3cccn3)c2)c1
*A* 0.36

###

testDetails: Drug distribution in tumor of BALB/c nude mouse xenografted with human MNNG/HOS cells at 62.5 mg/kg,ip measured after 12 hrs
Format: ADME, organism-based, Neoplasm, HOS-TE85
measurementContext: read-out: Ct
readout: concentration at 12 h (nM)
Answers are plain numbers, in nM.

*Q* What does the data say about its concentration at 12 h? Entry: Cc1ccnc(N2C(=O)CS[C@@H]2c2cccc(C(=O)NCCCCn3cccn3)c2)c1
*A* 110

###

testDetails: Cmax in male ICR mouse at 62.5 mg/kg, ip measured upto 24 hrs by LC-MS/MS analysis
Type: ADME, organism-based
Set-up: dose 62.5 mg/kg, time < 24 hrs, route ip
measurementContext: in vivo
readout: Cmax (ng/mL)
Numbers only, in ng/mL.

*Q* What does the data say about its Cmax? Entry: Cc1ccnc(N2C(=O)CS[C@@H]2c2cccc(C(=O)NCCCCn3cccn3)c2)c1
*A* 20500

###

testDetails: Microsomal stability in mouse liver microsomes assessed as intrinsic clearance at 0.1 uM incubated for 10 mins in presence of NADPH by LC-MS/MS analysis
Assay type: ADME, Microsome
# if measured intrinsic clearance (CLint) < 2000 mL/min/g: true (1)  # else: false (0)

Known results for compounds:
INSERT INTO measurements (compound, classname) VALUES
  ('COc1ccc(F)cc1N1C(=O)CSC1c1cccc(C(=O)NCCCCn2cccn2)c1 (stereo not given)', 'true (1)'),
  ('CC1SC(c2cccc(C(=O)NCCCCc3ccccc3)c2)N(c2ccc(C3CC3)cc2)C1=O (stereo not given)', 'false (0)'),
  ('C#Cc1cc(C(=O)NCCCCc2ccccc2)cc(C2SCC(=O)N2c2ccccc2OC)c1 (stereo not given)', 'false (0)'),
  ('O=C(NCCCCc1ccccc1)c1cccc(C2SCC(=O)N2c2cccc(F)c2)c1 (stereo not given)', 'false (0)');

In the following, a different compound is considered.
*Q* Is intrinsic clearance (CLint) strictly under 2000 mL/min/g for the entry Cc1ccnc(N2C(=O)CSC2c2cccc(C(=O)NCCCCn3cccn3)c2)c1 (racemic) ?
*A* true (1)

###

testDetails: Bioavailability in male ICR mouse at 62.5 mg/kg, ip measured upto 24 hrs by LC-MS/MS analysis
Format: ADME, organism-based
measurementContext: in vivo
readout: bioavailability

*Q* What does the data say about its bioavailability? Entry: Cc1ccnc(N2C(=O)CS[C@@H]2c2cccc(C(=O)NCCCCn3cccn3)c2)c1
*A* 52.1%

###

testDetails: Half life in male ICR mouse at 5 mg/kg, iv measured upto 24 hrs by LC-MS/MS analysis
Format: ADME, organism-based
measurementContext: in vivo
readout: half-life (min)
Numbers only, in min.

*Q* What does the data say about its half-life? Entry: Cc1ccnc(N2C(=O)CS[C@@H]2c2cccc(C(=O)NCCCCn3cccn3)c2)c1
*A* 23.4

###

testDetails: Microsomal stability in rat liver microsomes assessed as intrinsic clearance at 0.1 uM incubated for 10 mins in presence of NADPH by LC-MS/MS analysis
Assay type: ADME, Microsome
Field: intrinsic clearance (CLint). Provide a value for each of the compounds that follow.
Give bare numbers, in mL/min/g.

Solved cases below.
INSERT INTO assay_data (compound, reported) VALUES
  ('CC1SC(c2cccc(C(=O)NCCCCc3ccccc3)c2)N(c2ccc(C3CC3)cc2)C1=O (stereo not given)', 3129),
  ('O=C(NCCCCn1cccn1)c1cccc(C2SCC(=O)N2c2cc(F)ccn2)c1 (stereo not given)', 1198),
  ('O=C(NCCCCc1ccccc1)c1cccc(C2SCC(=O)N2c2cccc(-c3c[nH]nn3)c2)c1 (stereo not given)', 742),
  ('COc1ccc(F)cc1N1C(=O)CSC1c1cccc(C(=O)NCCCCc2ccccc2)c1 (stereo not given)', 2298);

# input for lookup
*Q* What does the data say about its intrinsic clearance (CLint)? Entry: O=C(NCCCCc1ccccc1)c1cccc(C2SCC(=O)N2c2ccccc2F)c1 (stereo not given)
*A* 2946

###

testDetails: Kinetic solubility of compound at pH 7.4 by turbidimetry method
Assay type: physicochemical
measurementContext: buffer, read-out: Kinetic_solubility
Field: solubility kinetic. Provide a value for each of the compounds that follow.

Solved cases below.
INSERT INTO results (compound, reported) VALUES
  ('O=C(NCCCCc1ccccc1)c1cccc(C2SCC(=O)N2c2ccc(C3CC3)cc2)c1 (stereo not given)', '2 µM'),
  ('O=C(NCCCCc1ccccc1)c1cccc(C2SCC(=O)N2c2ccccc2F)c1 (stereo not given)', '10 µM'),
  ('O=C(NCCCCn1cccn1)c1cccc(C2SCC(=O)N2c2cc(F)ccn2)c1 (stereo not given)', '50 µM');

Please look at the items below and tell me solubility kinetic for each one, in order.
1. CC1SC(c2cccc(C(=O)NCCCCc3ccccc3)c2)N(c2ccc(C3CC3)cc2)C1=O (stereo not given)
2. C#Cc1cccc(N2C(=O)CSC2c2cccc(C(=O)NCCCCc3ccccc3)c2)c1 (stereo not given)
3. Cc1ccnc(N2C(=O)CSC2c2cccc(C(=O)NCCCCn3cccn3)c2)c1 (racemic)

*A*
1. 2 µM
2. 10 µM
3. 50 µM

Please look at the items below and tell me solubility kinetic for each one, in order.
1. COc1ccc(F)cc1N1C(=O)CSC1c1cccc(C(=O)NCCCCn2cccn2)c1 (stereo not given)
2. COc1ccccc1N1C(=O)C(C)SC1c1cccc(C(=O)NCCCCc2ccccc2)c1 (stereo not given)
3. CC(F)(F)c1cccc(N2C(=O)CSC2c2cccc(C(=O)NCCCCc3ccccc3)c2)c1 (stereo not given)
4. COc1ccccc1N1C(=O)CSC1c1cc(F)cc(C(=O)NCCCCc2ccccc2)c1 (stereo not given)

*A*
1: 50 µM; 2: 10 µM; 3: 2 µM; 4: 10 µM

###

testDetails: Drug distribution in plasma of BALB/c nude mouse xenografted with human MNNG/HOS cells at 62.5 mg/kg,ip measured after 12 hrs
Format: ADME, organism-based, HOS-TE85
readout: concentration at 12 h
Give your result as the value with the unit written after it.

*Q* What does the data say about its concentration at 12 h? Entry: Cc1ccnc(N2C(=O)CS[C@@H]2c2cccc(C(=O)NCCCCn3cccn3)c2)c1
*A* 55.5 nM
